Cited source for all entries: ChEMBL document CHEMBL3352724

Measured IC50 by item
experiment description: Antineuroinflammatory activity against mouse BV2 cells assessed as inhibition of LPS-induced NO production treated with compound 30 mins and challenged with LPS for 24 hrs
condition info: BV-2
property measured: IC50 (µM)

O=C(/C=C/c1ccc(O)cc1)O[C@H]1[C@H](O[C@H]2CCCC[C@@H]2O)O[C@H](CO)[C@@H](O)[C@@H]1O: 15.5
O=C(/C=C/c1ccc(O)cc1)OC[C@H]1O[C@@H](O[C@@H]2CCCC[C@H]2O)[C@H](O)[C@@H](O)[C@@H]1O: 14.8
O=C(/C=C\c1ccc(O)cc1)O[C@H]1[C@H](O[C@@H]2CCCC[C@H]2O)O[C@H](CO)[C@@H](O)[C@@H]1O: 6.6
O=C(/C=C\c1ccc(O)cc1)O[C@@H]1[C@H](O[C@H]2CCCC[C@@H]2O)O[C@H](CO)[C@@H](O)[C@H]1O: 18.1
O=C(/C=C/c1ccc(O)cc1)O[C@H]1[C@H](O[C@@H]2CCCC[C@H]2O)O[C@H](CO)[C@@H](O)[C@@H]1O: 20.5
CNC(=N)NCCC[C@H](N)C(=O)O: 24.3
